- protocol.summary: clinical
- study.conditions: human, in vivo, po, F

[
  {
    "compound": "CN1C(C(=O)Nc2ccccn2)=C(O)c2sccc2S1(=O)=O",
    "bioavailability": "≥ 80%"
  },
  {
    "compound": "O=c1n(CCCN2CCN(c3cccc(Cl)c3)CC2)nc2ccccn12",
    "bioavailability": "> 80%"
  },
  {
    "compound": "CN(C/C=C/C#CC(C)(C)C)Cc1cccc2ccccc12",
    "bioavailability": "49%"
  },
  {
    "compound": "C=CCc1ccccc1OCC(O)CNC(C)C (stereo not given)",
    "bioavailability": "≤ 20%"
  },
  {
    "compound": "COC(=O)Nc1nc2ccc(C(=O)c3ccccc3)cc2[nH]1",
    "bioavailability": "≤ 20%"
  },
  {
    "compound": "CN1CCN2c3ncccc3Cc3ccccc3C2C1 (stereo not given)",
    "bioavailability": "79%"
  },
  {
    "compound": "CN(CCCN1c2ccccc2CCc2ccccc21)CC(=O)c1ccc(Cl)cc1",
    "bioavailability": "≤ 20%"
  },
  {
    "compound": "CCCN(CCC)S(=O)(=O)c1ccc(C(=O)O)cc1",
    "bioavailability": "≥ 80%"
  },
  {
    "compound": "COC(=O)C1=C(C)NC(C)=C(C(=O)OCCN(C)Cc2ccccc2)C1c1cccc([N+](=O)[O-])c1 (stereo not given)",
    "bioavailability": "49%"
  },
  {
    "compound": "COc1cc(NC(C)CCCN)c2ncccc2c1 (stereo not given)",
    "bioavailability": "79%"
  }
]

====

- protocol.summary: clinical
- study.conditions: human, in vivo, po, F
parameter: bioavailability

[
  {
    "molecule": "Nc1ccc(S(=O)(=O)Nc2ncccn2)cc1 [SULFADIAZINE]",
    "measured.value": "≥ 80%"
  },
  {
    "molecule": "CC1=NS(=O)(=O)c2cc(Cl)ccc2N1 [DIAZOXIDE]",
    "measured.value": "≥ 80%"
  },
  {
    "molecule": "C[C@]12C=CC(=O)C=C1CC[C@@H]1[C@@H]2C(=O)C[C@@]2(C)[C@H]1CC[C@]2(O)C(=O)CO [PREDNISONE]",
    "measured.value": "> 80%"
  },
  {
    "molecule": "NC(=O)CCCCc1ccccc1",
    "measured.value": "≥ 80%"
  },
  {
    "molecule": "Cc1[nH]c(=O)c(C#N)cc1-c1ccncc1 [MILRINONE]",
    "measured.value": "≥ 80%"
  }
]

====

- study.conditions: octanol/water
Note to self: values exactly at 0 are condition met. So delta logD at or above 0 is condition met, below is condition not met.

[
  {
    "molecule": "Cc1cccc(C)c1NC(=O)C(C)N (stereo not drawn) [TOCAINIDE]",
    "class.name": "condition not met"
  },
  {
    "molecule": "C1COC(NC(C2CC2)C2CC2)=N1",
    "class.name": "condition not met"
  },
  {
    "molecule": "CCCN(CCC)S(=O)(=O)c1ccc(C(=O)O)cc1",
    "class.name": "condition met"
  },
  {
    "molecule": "CCOC(=O)Nc1ccc2c(c1)N(C(=O)CCN1CCOCC1)c1ccccc1S2",
    "class.name": "condition not met"
  },
  {
    "molecule": "CC1CCCC(C)N1CCCC(O)(c1ccccc1)c1ccccn1 (stereo not drawn)",
    "class.name": "condition not met"
  },
  {
    "molecule": "Cc1[nH]c(=O)c(C#N)cc1-c1ccncc1",
    "class.name": "condition not met"
  },
  {
    "molecule": "CCc1cccc2cc(C(O)CNC(C)(C)C)oc12 (stereo not drawn)",
    "class.name": "condition not met"
  },
  {
    "molecule": "Cc1nnc2n1-c1sc(Br)cc1C(c1ccccc1Cl)=NC2",
    "class.name": "condition not met"
  },
  {
    "molecule": "C[C@H](CS)C(=O)N1C[C@@H](Sc2ccccc2)C[C@H]1C(=O)O",
    "class.name": "condition met"
  },
  {
    "molecule": "N#Cc1ccccc1OCC(O)CNCCNC(=O)Cc1ccc(O)cc1 (stereo not drawn)",
    "class.name": "condition not met"
  },
  {
    "molecule": "Cc1ncc2n1-c1ccc(Cl)cc1C(c1ccccc1F)=NC2",
    "class.name": "condition not met"
  },
  {
    "molecule": "CN1CCC[C@@H]1CCO[C@](C)(c1ccccc1)c1ccc(Cl)cc1",
    "class.name": "condition not met"
  },
  {
    "molecule": "Nc1cc(-c2ccncc2)c[nH]c1=O",
    "class.name": "condition not met"
  },
  {
    "molecule": "Sc1ncnc2nc[nH]c12 [MERCAPTOPURINE ANHYDROUS]",
    "class.name": "condition not met"
  },
  {
    "molecule": "CCC1(CCC(C)C)C(=O)NC(=O)NC1=O",
    "class.name": "condition met"
  },
  {
    "molecule": "COc1ccccc1OCCNCC(O)COc1cccc2[nH]c3ccccc3c12 (stereo not drawn)",
    "class.name": "condition not met"
  },
  {
    "molecule": "CC(C)(C)NC[C@H](O)COc1nsnc1N1CCOCC1",
    "class.name": "condition not met"
  },
  {
    "molecule": "CC(CCc1ccccc1)NCC(O)c1ccc(O)c(C(N)=O)c1 (stereo not drawn)",
    "class.name": "condition not met"
  },
  {
    "molecule": "CN1C(C(=O)Nc2ccccn2)=C(O)c2sccc2S1(=O)=O",
    "class.name": "condition met"
  },
  {
    "molecule": "COc1ccc([C@@H]2Sc3ccccc3N(CCN(C)C)C(=O)[C@@H]2OC(C)=O)cc1",
    "class.name": "condition not met"
  },
  {
    "molecule": "Cc1ccc(C)c(OCCCC(C)(C)C(=O)O)c1",
    "class.name": "condition met"
  },
  {
    "molecule": "NC(N)=Nc1nc(CSCCC(N)=NS(N)(=O)=O)cs1",
    "class.name": "condition not met"
  },
  {
    "molecule": "Nc1ccc(S(=O)(=O)Nc2ncccn2)cc1",
    "class.name": "condition met"
  },
  {
    "molecule": "CC(C)(C)NCC(O)COc1cccc2c1CCCC2=O (stereo not drawn)",
    "class.name": "condition not met"
  },
  {
    "molecule": "CCCC(CCC)C(=O)O",
    "class.name": "condition met"
  }
]
